assay: Toxicity in ip dosed B6D2F1 mouse assessed as maximum tolerated dose measured after 28 days; type: organism-based; conditions: in vivo, time 28 day
assay-readout: MTD at 672 h (mg/kg)
Quick note: give the figure in mg/kg, leave out the unit.

[[record]]
compound_string = "O=C1c2cccnc2-c2nccc3c2c1nc1cc(Br)ccc13"
data_value = 20


// next entry
// query Returns the measured MTD at 672 h for the input compound. Input: `O=C1c2cccnc2-c2nccc3c2c1nc1ccccc13`
// result 40

====

experiment: Cytotoxicity against human U87MG.deltaEGFR cells by resazurin dye based assay; assay type: functional, cell-based
assay-readout: IC50 (µM)
Quick note: give the figure in µM, leave out the unit.

// query Returns the measured IC50 for the input molecule. Input: `COc1c2c(cc3[nH]c4ccccc4c(=O)c13)OCO2`
// result 5.72

// query // same read-out, input: `COc1cc(OC)c2c(=O)c3ccccc3n(C)c2c1`
// result 8.88

// query // same read-out, input: `COc1cccc2c1C(=O)c1c(O)c3c(c(O)c1C2=O)C[C@@](O)(C(=O)CO)C[C@@H]3O[C@H]1C[C@H](N)[C@H](O)[C@H](C)O1`
// result 6.11
